Here the recorded koff is given for each entry.
- test-system: T1, biotinylated CD3 epsilon:delta heterodimer protein (Amsbio AMS.CDD-H52WO) (Homo sapiens (Human), UniProt P07766 23-126; P04234 22-105)
- T1 construct: also called CD3 heterodimer
- experiment-summary: BLI (Octet), CD3 on SA sensor, Fab analyte;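 further: fabs dipped at several concentrations (0–300 nM) onto CD3-loaded streptavidin biosensors, 100 s association then 300 s dissociation in buffer, pH 7.4, sensors blocked with biocytin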
Give just the number in s⁻¹; leave the unit off.

binder	reported-metric	numeric-value
huSP34.11.9 Fab-HF (Fab, V domains shown, also called HC11+LC9) VH: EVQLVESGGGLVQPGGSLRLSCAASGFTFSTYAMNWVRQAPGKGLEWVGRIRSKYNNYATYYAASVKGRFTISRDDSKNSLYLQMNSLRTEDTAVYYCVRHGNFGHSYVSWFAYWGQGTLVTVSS VL: QAVVTQPPSLTVSPGGTVTLTCGSSTGAVTTGHYANWVQQKPGQAPRGLIGGTNKRAPGVPARFSGSLSGGKAALTISGAQPEDEAEYYCALWYSNLWVFGGGTKLTVL	koff	0.00284
huSP34.13.7 Fab-HF (Fab, V domains shown, also called HC13+LC7) VH: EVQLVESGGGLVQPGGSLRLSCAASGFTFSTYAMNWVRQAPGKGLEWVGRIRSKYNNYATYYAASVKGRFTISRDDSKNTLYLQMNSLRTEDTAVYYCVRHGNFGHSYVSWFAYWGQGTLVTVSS VL: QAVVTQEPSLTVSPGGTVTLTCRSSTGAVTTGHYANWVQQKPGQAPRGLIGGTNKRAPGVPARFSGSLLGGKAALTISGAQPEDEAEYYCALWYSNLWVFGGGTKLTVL	koff	0.00275

Next, consider the following binder.
Using the record for huSP34.13.8 Fab-HF (Fab, V domains shown, also called HC13+LC8) VH: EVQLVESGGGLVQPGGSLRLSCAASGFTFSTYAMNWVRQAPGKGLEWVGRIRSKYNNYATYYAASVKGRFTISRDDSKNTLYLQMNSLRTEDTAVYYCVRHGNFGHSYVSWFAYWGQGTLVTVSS VL: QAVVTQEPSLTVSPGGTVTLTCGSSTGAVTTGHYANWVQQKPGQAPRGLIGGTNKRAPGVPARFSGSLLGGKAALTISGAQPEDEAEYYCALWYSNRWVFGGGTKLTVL , report its koff.
0.00216

Taken from patent US20230056252A1.
